target: EGFR-L858R/C797S (H1975-clone #8 cells) (Homo sapiens, UniProt P00533, C797S/L858R); construct: expressed in transfected cells; host or cells: H1975 (endogenous EGFR knocked out, clone #8); assay: Cell degradation of EGFR, HTRF assay, H1975-clone#8 (L858R/C797S) cells; assay type: cell-based; conditions: 16 h treatment, EGFR degradation
Sequence (P00533 25-1210 C797S/L858R): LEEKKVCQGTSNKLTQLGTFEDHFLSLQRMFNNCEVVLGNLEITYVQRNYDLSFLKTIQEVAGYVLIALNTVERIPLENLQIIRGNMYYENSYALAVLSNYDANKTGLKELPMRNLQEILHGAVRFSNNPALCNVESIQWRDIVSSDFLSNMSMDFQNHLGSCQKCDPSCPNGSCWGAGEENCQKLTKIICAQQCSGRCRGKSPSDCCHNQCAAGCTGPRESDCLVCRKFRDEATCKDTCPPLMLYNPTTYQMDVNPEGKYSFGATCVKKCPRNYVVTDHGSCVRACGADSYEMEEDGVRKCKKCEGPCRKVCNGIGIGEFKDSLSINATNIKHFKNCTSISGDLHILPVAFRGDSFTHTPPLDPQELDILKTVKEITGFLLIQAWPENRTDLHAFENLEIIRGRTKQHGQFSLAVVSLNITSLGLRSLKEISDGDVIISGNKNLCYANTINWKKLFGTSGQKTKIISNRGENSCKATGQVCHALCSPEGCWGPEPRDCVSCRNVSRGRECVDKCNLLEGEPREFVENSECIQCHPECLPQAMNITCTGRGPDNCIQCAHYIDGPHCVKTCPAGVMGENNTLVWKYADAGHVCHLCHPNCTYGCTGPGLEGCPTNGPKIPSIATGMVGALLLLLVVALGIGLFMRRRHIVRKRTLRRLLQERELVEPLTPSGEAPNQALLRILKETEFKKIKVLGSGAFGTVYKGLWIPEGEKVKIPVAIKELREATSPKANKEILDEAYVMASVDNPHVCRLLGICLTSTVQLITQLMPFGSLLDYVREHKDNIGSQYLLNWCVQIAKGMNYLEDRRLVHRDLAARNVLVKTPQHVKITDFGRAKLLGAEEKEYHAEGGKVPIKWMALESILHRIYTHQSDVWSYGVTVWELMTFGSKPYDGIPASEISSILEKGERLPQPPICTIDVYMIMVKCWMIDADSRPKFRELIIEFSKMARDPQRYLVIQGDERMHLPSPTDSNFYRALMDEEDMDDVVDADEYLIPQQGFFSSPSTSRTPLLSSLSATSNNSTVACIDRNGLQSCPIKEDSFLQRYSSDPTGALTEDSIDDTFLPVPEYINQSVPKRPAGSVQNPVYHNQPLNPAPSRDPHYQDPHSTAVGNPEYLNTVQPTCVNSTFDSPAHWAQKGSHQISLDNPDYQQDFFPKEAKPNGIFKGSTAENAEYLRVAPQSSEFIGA
Measured DC50 by item

# compound, measurementUnit, DC50
records = [
    ("COC[C@H]1CN(c2ccc3c(c2)N2C[C@@H]4CC[C@H](COc5c(cnn5C)-c5cc(cc(C)n5)C(=O)/N=C/2N3)C4)CCN1C1CN(C2CCN(c3cc(F)c([C@H]4CCC(=O)NC4=O)c(F)c3)CC2)C1 [Example 208]", "nM", 1.01),
    ("Cc1cc2cc(n1)-c1c(C)nn(C)c1OC[C@H]1CC[C@H](C1)CN1/C(=N/C2=O)Nc2ccc(N3CCC(N(C)C4CN(c5cc(F)c([C@H]6CCC(=O)NC6=O)c(F)c5)C4)CC3)cc21 [Example 142]", "nM", 0.748),
    ("Cc1cc2cc(n1)-c1c(C)nn(C)c1OC[C@H]1CC[C@H](C1)CN1/C(=N/C2=O)Nc2ccc(N3CCN(C[C@@H]4CCN(c5cc(F)c([C@H]6CCC(=O)NC6=O)c(F)c5)C4)CC3)cc21 [Example 184]", "nM", 3.16),
    ("Cc1cc2cc(n1)-c1c(C)nn(C)c1OC[C@H]1CC[C@H](C1)CN1/C(=N/C2=O)Nc2ccc(N3CC(N(C)C4CCN(c5cc(F)c([C@H]6CCC(=O)NC6=O)c(F)c5)CC4)C3)cc21 [Example 153]", "nM", 2.92),
    ("Cc1cc2cc(n1)-c1cnn(C)c1OC[C@H]1CC[C@H](C1)CN1/C(=N/C2=O)Nc2ccc(N3CCN(CCc4c(C)cc(C5CCC(=O)NC5=O)nc4C)CC3)cc21 (stereo partly shown) [Example 7]", "nM", 2.03),
    ("Cc1cc2cc(n1)-c1cnn(C)c1OC[C@H]1CC[C@H](C1)CN1/C(=N/C2=O)Nc2ccc(N3CCN(C4CCN(c5ccc(OC6CCC(=O)NC6=O)cc5)CC4)CC3)cc21 (stereo partly shown) [Example 57]", "nM", 3.14),
    ("CC[C@H]1CN(c2ccc3c(c2)N2C[C@@H]4CC[C@H](COc5c(c(C)nn5C)-c5cc(cc(C)n5)C(=O)/N=C/2N3)C4)CCN1C1CCN(c2cc(F)c([C@H]3CCC(=O)NC3=O)c(F)c2)CC1 [Example 189]", "nM", 2.38),
    ("COC[C@@H]1CN(c2ccc3c(c2)N2CC4CC[C@H](COc5c(c(C)nn5C)-c5cc(cc(C)n5)C(=O)/N=C/2N3)C4)CCN1C1CCN(c2c(F)cc(NC3CCC(=O)NC3=O)cc2F)CC1 (stereo partly shown) [Example 133]", "nM", 2.94),
    ("Cc1cc2cc(n1)-c1cnn(C)c1OC[C@H]1CCC(C1)CN1/C(=N/C2=O)Nc2ccc(N3CCC(N4CCC(Oc5cc(F)c([C@H]6CCC(=O)NC6=O)c(F)c5)CC4)CC3)cc21 [Example 113]", "nM", 2.69),
    ("Cc1cc2cc(n1)-c1c(C)nn(C)c1OC[C@H]1CC[C@H](C1)CN1/C(=N/C2=O)Nc2ccc(N3C[C@@H](C)N(C4CCN(c5cc(F)c([C@H]6CCC(=O)NC6=O)c(F)c5)CC4)C[C@H]3C)cc21 [Example 196]", "nM", 3.21),
    ("Cc1cc2cc(n1)-c1cnn(C)c1OC[C@H]1CCC(C1)CN1/C(=N/C2=O)Nc2ccc(N3CCN(C4CCN(c5ccc(NC6CCC(=O)NC6=O)cc5C)CC4)CC3)cc21 (stereo partly shown) [Example 123]", "nM", 2.14),
    ("Cc1cc2cc(n1)-c1c(C)nn(C)c1OC[C@H]1CC[C@H](C1)CN1/C(=N/C2=O)Nc2ccc(N3CCN([C@H]4CCN(c5cnc(C6CCC(=O)NC6=O)cc5C)CC4(F)F)CC3)cc21 (stereo partly shown) [Example 101]", "nM", 1.58),
    ("Cc1cc2cc(n1)-c1cnn(CCO)c1OC[C@H]1CCC(C1)CN1/C(=N/C2=O)Nc2ccc(N3CCN(C4CCN(c5cc(F)c([C@H]6CCC(=O)NC6=O)c(F)c5)CC4)CC3)cc21 [Example 122]", "nM", 3.24),
    ("Cc1cc2cc(n1)-c1cnn(C)c1OC[C@H]1CC[C@H](C1)CN1/C(=N/C2=O)Nc2ccc(N3CCN(C4CCN(c5ccc(NC6CCC(=O)NC6=O)cc5F)CC4)CC3)cc21 (stereo partly shown) [Example 59]", "nM", 2.87),
    ("Cc1cc2cc(n1)-c1c(C)nn(C)c1OC[C@H]1CC[C@H](C1)CN1/C(=N/C2=O)Nc2ccc(N3CCN(CC4CN(c5cc(F)c([C@H]6CCC(=O)NC6=O)c(F)c5)C4)CC3)cc21 [Example 199]", "nM", 2.28),
    ("Cc1cc2cc(n1)-c1cnn(CCO)c1OC[C@H]1CCC(C1)CN1/C(=N/C2=O)Nc2ccc(N3CCC(N4CCC(Nc5cc(F)c([C@H]6CCC(=O)NC6=O)c(F)c5)CC4)CC3)cc21 [Example 129]", "nM", 1.45),
    ("COC[C@@H]1CN(c2ccc3c(c2)N2CC4CC[C@H](COc5c(cnn5C)-c5cc(cc(C)n5)C(=O)/N=C/2N3)C4)CCN1C1CCN(c2c(F)cc(NC3CCC(=O)NC3=O)cc2F)CC1 (stereo partly shown) [Example 93]", "nM", 7.66),
    ("CCc1nc(C2CCC(=O)NC2=O)ccc1N1CCC(N2CCN(c3ccc4c(c3)N3C[C@@H]5CC[C@H](COc6c(cnn6C)-c6cc(cc(C)n6)C(=O)/N=C/3N4)C5)CC2)CC1 (stereo partly shown) [Example 4]", "nM", 2.34),
    ("Cc1cc2cc(n1)-c1cnn(C)c1OC[C@H]1CCC(C1)CN1/C(=N/C2=O)Nc2ccc(N3CCN(CCc4cc(F)c(C5CCC(=O)NC5=O)nc4C)CC3)cc21 (stereo partly shown) [Example 78]", "nM", 4.18),
]
